Tested on: anti-emetic power relative to apomorphine in dogs
Experiment: anti-emetic power relative to apomorphine in dogs by the method of Chen and Ensor (subcutaneous administration)
Format: in vivo
Conditions: Canis lupus familiaris, sc, Table 1, s.c. 30 minutes before apomorphine 100 ug/kg s.c.
Threshold 0.4 µg/kg: ED50 strictly smaller gives met, otherwise not met.

Look over these answered cases.
{"Compound": "CNS(=O)(=O)c1ccc(OC)c(C(=O)NCC2CCCN2CC2=CCCCC2)c1 (centres unmarked) [Example 15]", "Qualitative Label": "met"}
{"Compound": "COc1cc(S(N)(=O)=O)cc(C(=O)NCC2CCCN2CC2CC2)c1OC (centres unmarked) [Example 4]", "Qualitative Label": "not met"}
{"Compound": "COc1cc(S(N)(=O)=O)cc(C(=O)NCC2CCCN2CC2=CCCCC2)c1OC (centres unmarked) [Example 6]", "Qualitative Label": "not met"}

// next entry
Please check: ED50 for CNS(=O)(=O)c1cc(OC)c(OC)c(C(=O)NCC2CCCN2CC2CC2)c1 (centres unmarked) [Example 5] , strictly under 0.4 µg/kg or not?
not met

====

Assay: acute toxicity in the mouse
Details: in vivo, sc, S.C. (subcutaneous)
Text: The acute toxicity of the compounds of the invention has been studied in the mouse. The LD50 's are set out in the following Table 3. […] This characteristic is highly desirable because the possibility of toxic effects due to the administration of therapeutic doses is thereby minimized.
Below, each entry is listed alongside its reported LD50.

Below, 6 compounds whose answers are already recorded.
{"Compound": "CNS(=O)(=O)c1cc(OC)c(OC)c(C(=O)NCC2CCCN2CC2=CCCCC2)c1 (stereo not shown)", "LD50": "297 to 319 mg/kg"}
{"Compound": "COc1ccc(S(N)(=O)=O)cc1C(=O)NCC1CCCN1CC1=CCCCC1 (stereo not shown)", "LD50": "630 to 640 mg/kg"}
{"Compound": "COc1cc(S(N)(=O)=O)cc(C(=O)NCC2CCCN2CC2CC2)c1OC (stereo not shown)", "LD50": "930 mg/kg"}
{"Compound": "CCS(=O)(=O)c1cc(C(=O)NCC2CCCN2CC2=CCCC2)c(OC)cc1N (stereo not shown)", "LD50": "330 to 360 mg/kg"}
{"Compound": "CCS(=O)(=O)c1cc(C(=O)NCC2CCCN2CC2=CCCCC2)c(OC)cc1N (stereo not shown)", "LD50": "343 to 360 mg/kg"}
{"Compound": "CNS(=O)(=O)c1ccc(OC)c(C(=O)NCC2CCCN2CC2=CCCCCC2)c1 (stereo not shown)", "LD50": "322 to 336 mg/kg"}

Entry CNS(=O)(=O)c1ccc(OC)c(C(=O)NCC2CCCN2CC2=CCCCC2)c1 (stereo not shown) — recorded LD50 = 462 to 494 mg/kg

====

Assay: acute toxicity in the mouse
Conditions: in vivo, ip, I.P., at 240 mg/kg, read-out: 60% at 240 mg/kg (acute toxicity)
Text: The acute toxicity of the compounds of the invention has been studied in the mouse. The LD50 's are set out in the following Table 3. […] This characteristic is highly desirable because the possibility of toxic effects due to the administration of therapeutic doses is thereby minimized.
Reported Metric: mortality (%)
Numeric answer only, unit % assumed.

COc1cc(S(N)(=O)=O)cc(C(=O)NCC2CCCN2CC2=CCCCC2)c1OC (stereo not shown) yielded mortality of 60

====

System: chewing stereotypes induced by dexamphetamine
Test: antagonism to chewing stereotypes induced by dexamphetamine in rats, Janssen's method
Format: in vivo
Conditions: Rattus norvegicus, sc, Table 5, dexamphetamine 10 mg/kg
Experimental: The compounds were also tested for antagonism to chewing stereotypes induced by dexamphetamine (10 mg/kg) in rats, by Janssen's method in Arzn. Forsch. 1961, 11, 932-938 under subcutaneous administration with the following results: […]
Structures can show the parent of a compound that is named as a salt.
ED50 strictly less than 10 mg/kg = Criterion met. Otherwise Criterion not met.

{"Compound": "CNS(=O)(=O)c1cc(OC)c(OC)c(C(=O)NCC2CCCN2CC2=CCCCC2)c1 (stereo not drawn) [Example 12]", "Qualitative Label": "Criterion met"}
{"Compound": "CCS(=O)(=O)c1cc(C(=O)NCC2CCCN2CC2CCCCC2)c(OC)cc1N (stereo not drawn) [Example 8]", "Qualitative Label": "Criterion not met"}
{"Compound": "COc1ccc(S(N)(=O)=O)cc1C(=O)NCC1CCCN1CC1CCCCC1 (stereo not drawn) [Example 77205, reference compound]", "Qualitative Label": "Criterion not met"}
{"Compound": "CNS(=O)(=O)c1ccc(OC)c(C(=O)NCC2CCCN2CC2=CCCCCC2)c1 (stereo not drawn) [Example 13]", "Qualitative Label": "Criterion met"}
{"Compound": "CCS(=O)(=O)c1cc(C(=O)NCC2CCCN2CC2=CCCC2)c(OC)cc1N (stereo not drawn) [Example 10]", "Qualitative Label": "Criterion not met"}

Does this compound meet the criterion ED50 < 10 mg/kg? CCS(=O)(=O)c1cc(C(=O)NCC2CCCN2CC2=CCCCC2)c(OC)cc1N (stereo not drawn) [Example 11]
Criterion met

Field: below-cutoff. Rule: recorded ED50 strictly less than 10 mg/kg. Subject: CNS(=O)(=O)c1ccc(OC)c(C(=O)NCC2CCCN2CC2=CCCCC2)c1 (stereo not drawn) [Example 15]
Criterion met

Consider CCS(=O)(=O)c1cc(OC)c(OC)c(C(=O)NCC2CCCN2CC2CC2)c1 (stereo not drawn) [Example 16, hydrochloride] . Does its ED50 lie strictly below 10 mg/kg?
Criterion met

====

Test system: anti-emetic power relative to apomorphine in dogs
Assay: anti-emetic power relative to apomorphine in dogs by the method of Chen and Ensor (subcutaneous administration)
Assay type: in vivo
Conditions: Canis lupus familiaris, sc, Table 1, s.c. 30 minutes before apomorphine 100 ug/kg s.c.
Binarize ED50 at 1 µg/kg; below is criterion met, at or above is criterion not met.

{"Compound": "CCS(=O)(=O)c1cc(C(=O)NCC2CCCN2CC2=CCCCC2)c(OC)cc1N (stereo not drawn)", "System": "anti-emetic power relative to apomorphine in dogs", "Qualitative Label": "criterion met"}
{"Compound": "CCS(=O)(=O)c1cc(C(=O)NCC2CCCN2CC2CC2)c(OC)cc1N (stereo not drawn)", "System": "anti-emetic power relative to apomorphine in dogs", "Qualitative Label": "criterion met"}
{"Compound": "CNS(=O)(=O)c1cc(OC)c(OC)c(C(=O)NCC2CCCN2CC2=CCCCC2)c1 (stereo not drawn)", "System": "anti-emetic power relative to apomorphine in dogs", "Qualitative Label": "criterion not met"}
{"Compound": "CCS(=O)(=O)c1cc(C(=O)NCC2CCCN2CC2=CCCC2)c(OC)cc1N (stereo not drawn)", "System": "anti-emetic power relative to apomorphine in dogs", "Qualitative Label": "criterion not met"}
{"Compound": "CC[S+]([O-])c1cc(C(=O)NCC2CCCN2CC2CC2)c(OC)cc1N (stereo not drawn)", "System": "anti-emetic power relative to apomorphine in dogs", "Qualitative Label": "criterion met"}

Item CNS(=O)(=O)c1ccc(OC)c(C(=O)NCC2CCCN2CC2=CCCCCC2)c1 (stereo not drawn) : ED50 beneath 1 µg/kg, strictly?
criterion met

Hello, is ED50 of the following compound strictly smaller than 1 µg/kg? CCS(=O)(=O)c1cc(C(=O)NCC2CCCN2CC2CCCCC2)c(OC)cc1N (stereo not drawn)
criterion not met

# TODO verify ED50 < 1 µg/kg strictly for this compound: COc1ccc(S(N)(=O)=O)cc1C(=O)NCC1CCCN1CC1=CCCCC1 (stereo not drawn)
criterion met

Given COc1cc2[nH]nnc2cc1C(=O)NCC1CCCN1CC1=CCCCC1 (stereo not drawn) , is recorded ED50 strictly lower than 1 µg/kg?
criterion not met

====

Assay: acute toxicity in the mouse
Details: in vivo, I.V. (intravenous)
Reported Metric: LD50

{"Compound": "CNS(=O)(=O)c1ccc(OC)c(C(=O)NCC2CCCN2CC2=CCCCCC2)c1 (centres unmarked)", "Reported": "45.5 to 48 mg/kg"}
{"Compound": "CCS(=O)(=O)c1cc(C(=O)NCC2CCCN2CC2CC2)c(OC)cc1N (centres unmarked)", "Reported": "52.5 to 54.6 mg/kg"}
{"Compound": "CCS(=O)(=O)c1cc(C(=O)NCC2CCCN2CC2CCCCC2)c(OC)cc1N (centres unmarked)", "Reported": "37 to 40.8 mg/kg"}
{"Compound": "CNS(=O)(=O)c1ccc(OC)c(C(=O)NCC2CCCN2CC2=CCCCC2)c1 (centres unmarked)", "Reported": "44.2 to 46.5 mg/kg"}

// recorded LD50 for CCS(=O)(=O)c1cc(C(=O)NCC2CCCN2CC2=CCCC2)c(OC)cc1N (centres unmarked) : 41.8 to 42 mg/kg

Data credit: patent US4816471A
